meta.source: patent US20260109721A1

test system: HepG2 cell line; test: In vitro toxicity study on HepG2 cell line (resazurin, viability and IC50); assay type: cell-based, human; conditions: HepG2 cells, 100 μM lipid, 48 h post-treatment, resazurin, relative to ethanol vehicle controls
Measurement Name: Viability (%) at different lipid concentrations, mean
The response must be a number in % with no trailing unit.

# annotated cases, reported Viability (%) at different lipid concentrations, mean shown
[[record]]
compound = "CCCCC/C=C\\C/C=C\\CCCCCCCCOC(CCCCCCC/C=C\\CCCCCCCC)O[Si](C)(C)OCCCCCCN(CCO)CCO (stereo not drawn)"
tested_target = "HepG2 cell line"
unit_of_measurement = "%"
test_value = 103.1

[[record]]
compound = "CCCCCCCC/C=C\\CCCCCCCCOC(=O)C(C)(C)CCC(OCCCCCCCC/C=C\\CCCCCCCC)O[Si](C)(C)OCCCCCCN(CCO)CCO (stereo not drawn)"
tested_target = "HepG2 cell line"
unit_of_measurement = "%"
test_value = 106.5

[[record]]
compound = "CCCCC/C=C\\C/C=C\\CCCCCCCCOC(CCCCCCC/C=C\\C/C=C\\CCCCC)O[Si](C)(C)OCCCCCCN(CCCO)CCCO (stereo not drawn)"
tested_target = "HepG2 cell line"
unit_of_measurement = "%"
test_value = 54.4


Per the record, CCCCC/C=C\C/C=C\CCCCCCCCOC(CC[C@@H](C)C1CCC2C3CCC4C[C@H](OC)CC[C@]4(C)C3CC[C@@]21C)O[Si](C)(C)OCCCCCCN(CCO)CCO (stereo partly drawn) has Viability (%) at different lipid concentrations, mean of 112.2

For record C#CCN(C)CCCCCCO[Si](C)(C)OC(CCCCCCC/C=C\C/C=C\CCCCC)OCCCCCCCC/C=C\C/C=C\CCCCC (stereo not drawn) the listed Viability (%) at different lipid concentrations, mean is 92.6

Sample CCCCCCCC/C=C\CCCCCCCCOC(=O)C(C)(C)CC(OCCCCCCCC/C=C\CCCCCCCC)O[Si](C)(C)OCCCCCCN1CCCCC1CO (stereo not drawn) ; Viability (%) at different lipid concentrations, mean observed: 108.3
